Cited source for all entries: paper PMC4055595

- assay.method.text: Rat plasma pharmacokinetics after 10-day vehicle/SLE and digoxin or GE
- Assay type: in vivo, Sprague-Dawley rats
- test.settings: female, Sprague-Dawley, rat, plasma, po, rats, SLE 500 mg/kg ig once a day for 10 days, day 11 digoxin 0.5 mg/kg or GE 120 mg/kg ig; read-out: MRTINF_obs
attribute.measured: MRT inf (h)

compound="C[C@H]1O[C@@H](O[C@H]2[C@@H](O)C[C@H](O[C@H]3[C@@H](O)C[C@H](O[C@H]4CC[C@@]5(C)[C@H](CC[C@@H]6[C@@H]5C[C@@H](O)[C@]5(C)[C@@H](C7=CC(=O)OC7)CC[C@]65O)C4)O[C@@H]3C)O[C@@H]2C)C[C@H](O)[C@@H]1O [Digoxin, digoxin, reference compound]" result_value=4.78
compound="CC(C)=CCC[C@](C)(O[C@@H]1O[C@H](CO)[C@@H](O)[C@H](O)[C@H]1O)[C@H]1CC[C@]2(C)[C@@H]1[C@H](O)C[C@@H]1[C@@]3(C)CC[C@H](O[C@@H]4O[C@H](CO)[C@@H](O)[C@H](O)[C@H]4O[C@@H]4O[C@H](CO)[C@@H](O)[C@H](O)[C@H]4O)C(C)(C)[C@@H]3CC[C@]12C [Rd, ginsenoside Rd]" result_value=26.3
compound="CC(C)=CCC[C@](C)(O[C@@H]1O[C@H](CO[C@@H]2O[C@H](CO)[C@@H](O)[C@H](O)[C@H]2O)[C@@H](O)[C@H](O)[C@H]1O)[C@H]1CC[C@]2(C)[C@@H]1[C@H](O)C[C@@H]1[C@@]3(C)CC[C@H](O[C@@H]4O[C@H](CO)[C@@H](O)[C@H](O)[C@H]4O[C@@H]4O[C@H](CO)[C@@H](O)[C@H](O)[C@H]4O)C(C)(C)[C@@H]3CC[C@]12C [Rb1, ginsenoside Rb1]" result_value=33.5
compound="CC(C)=CCC[C@](C)(O[C@@H]1O[C@H](CO[C@@H]2OC[C@H](O)[C@H](O)[C@H]2O)[C@@H](O)[C@H](O)[C@H]1O)[C@H]1CC[C@]2(C)[C@@H]1[C@H](O)C[C@@H]1[C@@]3(C)CC[C@H](O[C@@H]4O[C@H](CO)[C@@H](O)[C@H](O)[C@H]4O[C@@H]4O[C@H](CO)[C@@H](O)[C@H](O)[C@H]4O)C(C)(C)[C@@H]3CC[C@]12C [Rb2, ginsenoside Rb2]" result_value=26.5

---

- measured.on: human MDR1-encoded P-gp (L-MDR1 cells) (Homo sapiens)
- Sequence (P08183 whole entry): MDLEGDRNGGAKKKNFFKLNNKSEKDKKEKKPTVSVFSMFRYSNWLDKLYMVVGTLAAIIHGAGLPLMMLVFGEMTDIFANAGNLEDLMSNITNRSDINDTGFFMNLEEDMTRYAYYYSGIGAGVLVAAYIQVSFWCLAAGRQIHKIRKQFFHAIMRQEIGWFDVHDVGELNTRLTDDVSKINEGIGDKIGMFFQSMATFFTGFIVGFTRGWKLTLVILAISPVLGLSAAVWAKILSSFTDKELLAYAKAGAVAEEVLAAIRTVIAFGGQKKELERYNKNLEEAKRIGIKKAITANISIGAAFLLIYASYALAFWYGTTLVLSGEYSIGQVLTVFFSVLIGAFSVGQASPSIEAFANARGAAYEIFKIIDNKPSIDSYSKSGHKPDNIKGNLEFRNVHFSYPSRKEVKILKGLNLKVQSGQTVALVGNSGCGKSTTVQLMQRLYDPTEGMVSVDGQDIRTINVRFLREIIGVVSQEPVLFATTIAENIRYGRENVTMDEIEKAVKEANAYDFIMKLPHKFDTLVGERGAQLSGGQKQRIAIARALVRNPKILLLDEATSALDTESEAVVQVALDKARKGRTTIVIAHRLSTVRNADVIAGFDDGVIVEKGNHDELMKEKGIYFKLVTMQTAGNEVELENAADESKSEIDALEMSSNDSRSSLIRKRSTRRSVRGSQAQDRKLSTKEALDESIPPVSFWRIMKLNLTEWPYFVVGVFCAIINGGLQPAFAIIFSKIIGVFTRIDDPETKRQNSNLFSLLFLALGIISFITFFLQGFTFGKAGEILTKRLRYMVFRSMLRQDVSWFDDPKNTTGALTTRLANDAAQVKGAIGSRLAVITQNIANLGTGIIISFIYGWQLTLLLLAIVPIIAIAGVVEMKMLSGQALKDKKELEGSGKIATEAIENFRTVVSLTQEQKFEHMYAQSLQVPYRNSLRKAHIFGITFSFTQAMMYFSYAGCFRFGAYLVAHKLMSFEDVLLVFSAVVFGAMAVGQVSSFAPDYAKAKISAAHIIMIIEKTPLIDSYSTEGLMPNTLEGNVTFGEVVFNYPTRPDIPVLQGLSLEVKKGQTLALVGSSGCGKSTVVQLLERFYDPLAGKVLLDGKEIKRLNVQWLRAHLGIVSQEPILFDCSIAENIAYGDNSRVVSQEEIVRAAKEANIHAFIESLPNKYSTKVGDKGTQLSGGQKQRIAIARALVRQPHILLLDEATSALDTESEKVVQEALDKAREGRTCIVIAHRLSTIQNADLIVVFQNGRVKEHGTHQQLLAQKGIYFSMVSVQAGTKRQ
- assay.method.text: Uptake (intracellular concentration) of digoxin and ginsenosides in L-MDR1 cells
- Format: in vitro ADME
- test.settings: 2.0 µg/mL SLE
attribute.measured: Increase of intracellular concentration by SLE (fold)

molecule="CC(C)=CCC[C@](C)(O)[C@H]1CC[C@]2(C)[C@@H]1[C@H](O)C[C@@H]1[C@@]3(C)CC[C@H](O[C@@H]4O[C@H](CO)[C@@H](O)[C@H](O)[C@H]4O[C@@H]4O[C@H](CO)[C@@H](O)[C@H](O)[C@H]4O)C(C)(C)[C@@H]3CC[C@]12C [Rg3, ginsenoside Rg3]" units=fold result_value=2.5
molecule="CC(C)=CCC[C@](C)(O)[C@H]1CC[C@]2(C)[C@@H]1[C@H](O)C[C@@H]1[C@@]3(C)CC[C@H](O)C(C)(C)[C@@H]3[C@@H](O[C@@H]3O[C@H](CO)[C@@H](O)[C@H](O)[C@H]3O[C@@H]3O[C@@H](C)[C@H](O)[C@@H](O)[C@H]3O)C[C@]12C [Rg2, ginsenoside Rg2]" units=fold result_value=1.7
